target_entity: BAP1 (UniProt Q92560)
Sequence (whole entry): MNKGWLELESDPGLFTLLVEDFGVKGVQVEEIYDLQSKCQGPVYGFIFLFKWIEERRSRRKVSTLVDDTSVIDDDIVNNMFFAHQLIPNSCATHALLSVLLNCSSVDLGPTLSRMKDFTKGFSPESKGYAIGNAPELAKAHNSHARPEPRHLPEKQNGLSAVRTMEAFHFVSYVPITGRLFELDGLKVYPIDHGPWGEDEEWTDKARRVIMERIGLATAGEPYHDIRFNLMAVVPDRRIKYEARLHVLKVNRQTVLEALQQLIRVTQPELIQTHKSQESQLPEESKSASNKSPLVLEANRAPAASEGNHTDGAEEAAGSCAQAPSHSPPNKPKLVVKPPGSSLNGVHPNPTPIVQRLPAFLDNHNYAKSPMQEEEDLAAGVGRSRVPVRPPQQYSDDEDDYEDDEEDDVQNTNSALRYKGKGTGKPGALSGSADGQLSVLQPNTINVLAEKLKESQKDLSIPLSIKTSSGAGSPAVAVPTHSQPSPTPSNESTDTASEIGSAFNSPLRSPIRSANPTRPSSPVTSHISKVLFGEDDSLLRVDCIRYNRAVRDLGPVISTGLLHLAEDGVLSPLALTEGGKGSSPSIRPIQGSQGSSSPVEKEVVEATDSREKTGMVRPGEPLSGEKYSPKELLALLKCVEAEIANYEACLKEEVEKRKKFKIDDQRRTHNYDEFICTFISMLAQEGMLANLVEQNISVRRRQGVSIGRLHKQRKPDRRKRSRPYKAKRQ
procedure_summary: log2 ratio of Biotin-Ahx-Ub-VS probe labelling (fragment/DMSO); higher = less target engagement (more negative = stronger competition), active = hit call of the paper (q ≤ 0.05, log2 ratio ≤ -1)
assay_conditions: compound concentration: 200 uM; treatment time: 3 h
Answer with one of the outcomes TRUE (active), FALSE (inactive)

Completed entries (count: 6):
Recorded test outcome, item "Cl.O=C(CCl)N1CCn2cncc2C1"
FALSE

Outcome logged for O=C(CCl)N1CCOCCC1c1ccccc1 (centres undefined) in this assay:
FALSE

Please indicate how the test categorized "Cc1cc(C(=O)NC2CCN(C(=O)CCl)CC2)no1" .
FALSE

For "Cn1cc(CN(Cc2ccc(Cl)cc2)C(=O)CCl)cn1" , which call appears in the assay record?
FALSE

In this assay, the call recorded for "Cl.O=C(CCl)NCc1ccnc(Oc2ccccc2F)c1" was what?
TRUE

# fetch the recorded call for O=C(CCl)NC1CCS(=O)(=O)c2ccccc21 (centres undefined) here
TRUE

---
Record request — test call for "Cc1ncc2c(n1)CCN(C(=O)CCl)C2"
FALSE

For "CCCn1nccc1NC(=O)CCl" , what call appears in the results of this test?
TRUE

Per the assay record, what outcome was assigned to Cl.O=C(CCl)N1CCCC(c2ncc[nH]2)C1 (centres undefined) ?
FALSE

What outcome does the record of this test show for O=C(CCl)N1CCOCC1C1CC1 (centres undefined) ?
FALSE

GET /call?item= "Cc1ccc(CNC(=O)CCl)nc1C.Cl" returns the recorded outcome of this test.
TRUE

Status in this test for NC(=O)C1CCCN(C(=O)CCl)C1 (centres undefined) ?
FALSE

// return assay outcome for "C[C@H]1CN(C(=O)CCl)CCN1C(=O)c1cnn(C)c1.Cl"
FALSE

Recorded call for "Cc1conc1C1CN(C(=O)CCl)C1" ?
TRUE

====

target_entity: USP10 (UniProt Q14694)
Sequence (Q14694 whole entry, the tested form may be a part): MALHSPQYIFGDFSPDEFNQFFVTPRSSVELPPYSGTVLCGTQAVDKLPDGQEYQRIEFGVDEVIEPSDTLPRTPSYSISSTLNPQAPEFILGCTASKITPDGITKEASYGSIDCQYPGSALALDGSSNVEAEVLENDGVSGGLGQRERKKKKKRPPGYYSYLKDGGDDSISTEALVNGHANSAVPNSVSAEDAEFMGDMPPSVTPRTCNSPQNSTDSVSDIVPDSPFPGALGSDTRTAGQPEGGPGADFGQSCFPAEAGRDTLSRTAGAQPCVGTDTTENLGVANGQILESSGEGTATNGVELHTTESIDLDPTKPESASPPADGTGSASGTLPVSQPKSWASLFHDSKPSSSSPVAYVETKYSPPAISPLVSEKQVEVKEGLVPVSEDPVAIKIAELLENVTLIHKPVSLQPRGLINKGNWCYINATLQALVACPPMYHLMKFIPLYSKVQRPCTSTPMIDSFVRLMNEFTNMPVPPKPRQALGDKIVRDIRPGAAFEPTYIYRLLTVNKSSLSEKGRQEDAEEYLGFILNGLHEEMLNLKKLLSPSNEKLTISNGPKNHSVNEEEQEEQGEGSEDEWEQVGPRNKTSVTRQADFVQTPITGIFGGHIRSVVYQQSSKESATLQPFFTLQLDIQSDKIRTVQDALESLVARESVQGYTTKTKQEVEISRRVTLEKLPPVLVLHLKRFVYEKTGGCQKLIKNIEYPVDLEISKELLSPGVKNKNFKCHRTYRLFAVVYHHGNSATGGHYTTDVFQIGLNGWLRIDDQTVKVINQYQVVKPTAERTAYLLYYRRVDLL
procedure_summary: log2 ratio of Biotin-Ahx-Ub-VS probe labelling (fragment/DMSO); higher = less target engagement (more negative = stronger competition), active = hit call of the paper (q ≤ 0.05, log2 ratio ≤ -1)
assay_conditions: compound concentration: 200 uM; treatment time: 3 h
Please enter 1 (yes) where log2 ratio of Biotin-Ahx-Ub-VS probe labelling is greater than or equal to -0.2, and 0 (no) where it is lower.

Worked examples, 10 compounds total:
Decide: log2 ratio of Biotin-Ahx-Ub-VS probe labelling of "O=C(CCl)N1CCN(C(=O)Nc2ccccc2)CC1" >= -0.2?
1 (yes)

Does the reported log2 ratio of Biotin-Ahx-Ub-VS probe labelling for CC1CN(c2ccc(NC(=O)CCl)cc2)CC(C)O1 (configuration not stated) fall at or above the -0.2 mark?
1 (yes)

Given "Cc1ccc(CN(C)C(=O)CCl)o1" , state whether its log2 ratio of Biotin-Ahx-Ub-VS probe labelling is at least -0.2.
1 (yes)

Given O=C(CCl)N1CCOC(CCc2ccccc2)C1 (configuration not stated) , state whether its log2 ratio of Biotin-Ahx-Ub-VS probe labelling is at least -0.2.
0 (no)

Does "N#Cc1cnn(-c2ccccc2)c1NC(=O)CCl" have a reported log2 ratio of Biotin-Ahx-Ub-VS probe labelling of at least -0.2?
1 (yes)

# check: log2 ratio of Biotin-Ahx-Ub-VS probe labelling of "CN(Cc1nc2ccccc2[nH]1)C(=O)CCl.Cl" is greater than or equal to -0.2
1 (yes)

Could you tell me if the measured log2 ratio of Biotin-Ahx-Ub-VS probe labelling of O=C(CCl)N1CCC(C(O)c2ccc(F)cc2)CC1 (configuration not stated) reaches -0.2 or more?
0 (no)

Assess whether reported log2 ratio of Biotin-Ahx-Ub-VS probe labelling for "Cc1c(C#N)c(NC(=O)CCl)n(Cc2ccco2)c1C" sits at -0.2 or higher.
0 (no)

Determine whether this compound has log2 ratio of Biotin-Ahx-Ub-VS probe labelling no lower than -0.2: "O=C(CCl)N1CCC(S(=O)(=O)c2ccc(F)cc2)CC1"
1 (yes)

Evaluate "Cc1ccccc1C1(CNC(=O)CCl)CCOCC1" : log2 ratio of Biotin-Ahx-Ub-VS probe labelling at minimum -0.2?
1 (yes)

Continuing:
Test whether the compound "O=C(CCl)N[C@H]1CCS(=O)(=O)c2ccccc21" records log2 ratio of Biotin-Ahx-Ub-VS probe labelling of -0.2 or higher.
1 (yes)

Is log2 ratio of Biotin-Ahx-Ub-VS probe labelling at least -0.2? Consider "O=C(CCl)N1CCC(=C(F)CO)C1"
1 (yes)

Can NC(=O)C1CCCCN1C(=O)CCl (configuration not stated) be said to have log2 ratio of Biotin-Ahx-Ub-VS probe labelling at or above -0.2?
1 (yes)

Is reported log2 ratio of Biotin-Ahx-Ub-VS probe labelling greater than or equal to -0.2 here: "O=C(CCl)N1CCOC2(CCC2)C1"
1 (yes)

Given "COc1cccc(CN(C)C(=O)CCl)c1" , state whether its log2 ratio of Biotin-Ahx-Ub-VS probe labelling is at least -0.2.
0 (no)

Say whether "Cl.Cn1cnc2cc(CNC(=O)CCl)ccc21" shows log2 ratio of Biotin-Ahx-Ub-VS probe labelling of -0.2 or more.
1 (yes)

Identify whether the reported log2 ratio of Biotin-Ahx-Ub-VS probe labelling of the following compound is -0.2 or greater: Cc1nnc(C(NC(=O)CCl)c2ccccc2)n1C (configuration not stated)
1 (yes)

Please indicate if the recorded log2 ratio of Biotin-Ahx-Ub-VS probe labelling for "CCc1c[nH]c(CNC(=O)CCl)n1.Cl" meets or exceeds -0.2.
0 (no)

Dear colleague, could you confirm whether O=C(CCl)N(C1CCCC1)C1CCS(=O)(=O)C1 (configuration not stated) has log2 ratio of Biotin-Ahx-Ub-VS probe labelling at or above -0.2?
1 (yes)

====

target_entity: USP34 (UniProt Q70CQ2)
Sequence (Q70CQ2 whole entry, the tested form may be a part): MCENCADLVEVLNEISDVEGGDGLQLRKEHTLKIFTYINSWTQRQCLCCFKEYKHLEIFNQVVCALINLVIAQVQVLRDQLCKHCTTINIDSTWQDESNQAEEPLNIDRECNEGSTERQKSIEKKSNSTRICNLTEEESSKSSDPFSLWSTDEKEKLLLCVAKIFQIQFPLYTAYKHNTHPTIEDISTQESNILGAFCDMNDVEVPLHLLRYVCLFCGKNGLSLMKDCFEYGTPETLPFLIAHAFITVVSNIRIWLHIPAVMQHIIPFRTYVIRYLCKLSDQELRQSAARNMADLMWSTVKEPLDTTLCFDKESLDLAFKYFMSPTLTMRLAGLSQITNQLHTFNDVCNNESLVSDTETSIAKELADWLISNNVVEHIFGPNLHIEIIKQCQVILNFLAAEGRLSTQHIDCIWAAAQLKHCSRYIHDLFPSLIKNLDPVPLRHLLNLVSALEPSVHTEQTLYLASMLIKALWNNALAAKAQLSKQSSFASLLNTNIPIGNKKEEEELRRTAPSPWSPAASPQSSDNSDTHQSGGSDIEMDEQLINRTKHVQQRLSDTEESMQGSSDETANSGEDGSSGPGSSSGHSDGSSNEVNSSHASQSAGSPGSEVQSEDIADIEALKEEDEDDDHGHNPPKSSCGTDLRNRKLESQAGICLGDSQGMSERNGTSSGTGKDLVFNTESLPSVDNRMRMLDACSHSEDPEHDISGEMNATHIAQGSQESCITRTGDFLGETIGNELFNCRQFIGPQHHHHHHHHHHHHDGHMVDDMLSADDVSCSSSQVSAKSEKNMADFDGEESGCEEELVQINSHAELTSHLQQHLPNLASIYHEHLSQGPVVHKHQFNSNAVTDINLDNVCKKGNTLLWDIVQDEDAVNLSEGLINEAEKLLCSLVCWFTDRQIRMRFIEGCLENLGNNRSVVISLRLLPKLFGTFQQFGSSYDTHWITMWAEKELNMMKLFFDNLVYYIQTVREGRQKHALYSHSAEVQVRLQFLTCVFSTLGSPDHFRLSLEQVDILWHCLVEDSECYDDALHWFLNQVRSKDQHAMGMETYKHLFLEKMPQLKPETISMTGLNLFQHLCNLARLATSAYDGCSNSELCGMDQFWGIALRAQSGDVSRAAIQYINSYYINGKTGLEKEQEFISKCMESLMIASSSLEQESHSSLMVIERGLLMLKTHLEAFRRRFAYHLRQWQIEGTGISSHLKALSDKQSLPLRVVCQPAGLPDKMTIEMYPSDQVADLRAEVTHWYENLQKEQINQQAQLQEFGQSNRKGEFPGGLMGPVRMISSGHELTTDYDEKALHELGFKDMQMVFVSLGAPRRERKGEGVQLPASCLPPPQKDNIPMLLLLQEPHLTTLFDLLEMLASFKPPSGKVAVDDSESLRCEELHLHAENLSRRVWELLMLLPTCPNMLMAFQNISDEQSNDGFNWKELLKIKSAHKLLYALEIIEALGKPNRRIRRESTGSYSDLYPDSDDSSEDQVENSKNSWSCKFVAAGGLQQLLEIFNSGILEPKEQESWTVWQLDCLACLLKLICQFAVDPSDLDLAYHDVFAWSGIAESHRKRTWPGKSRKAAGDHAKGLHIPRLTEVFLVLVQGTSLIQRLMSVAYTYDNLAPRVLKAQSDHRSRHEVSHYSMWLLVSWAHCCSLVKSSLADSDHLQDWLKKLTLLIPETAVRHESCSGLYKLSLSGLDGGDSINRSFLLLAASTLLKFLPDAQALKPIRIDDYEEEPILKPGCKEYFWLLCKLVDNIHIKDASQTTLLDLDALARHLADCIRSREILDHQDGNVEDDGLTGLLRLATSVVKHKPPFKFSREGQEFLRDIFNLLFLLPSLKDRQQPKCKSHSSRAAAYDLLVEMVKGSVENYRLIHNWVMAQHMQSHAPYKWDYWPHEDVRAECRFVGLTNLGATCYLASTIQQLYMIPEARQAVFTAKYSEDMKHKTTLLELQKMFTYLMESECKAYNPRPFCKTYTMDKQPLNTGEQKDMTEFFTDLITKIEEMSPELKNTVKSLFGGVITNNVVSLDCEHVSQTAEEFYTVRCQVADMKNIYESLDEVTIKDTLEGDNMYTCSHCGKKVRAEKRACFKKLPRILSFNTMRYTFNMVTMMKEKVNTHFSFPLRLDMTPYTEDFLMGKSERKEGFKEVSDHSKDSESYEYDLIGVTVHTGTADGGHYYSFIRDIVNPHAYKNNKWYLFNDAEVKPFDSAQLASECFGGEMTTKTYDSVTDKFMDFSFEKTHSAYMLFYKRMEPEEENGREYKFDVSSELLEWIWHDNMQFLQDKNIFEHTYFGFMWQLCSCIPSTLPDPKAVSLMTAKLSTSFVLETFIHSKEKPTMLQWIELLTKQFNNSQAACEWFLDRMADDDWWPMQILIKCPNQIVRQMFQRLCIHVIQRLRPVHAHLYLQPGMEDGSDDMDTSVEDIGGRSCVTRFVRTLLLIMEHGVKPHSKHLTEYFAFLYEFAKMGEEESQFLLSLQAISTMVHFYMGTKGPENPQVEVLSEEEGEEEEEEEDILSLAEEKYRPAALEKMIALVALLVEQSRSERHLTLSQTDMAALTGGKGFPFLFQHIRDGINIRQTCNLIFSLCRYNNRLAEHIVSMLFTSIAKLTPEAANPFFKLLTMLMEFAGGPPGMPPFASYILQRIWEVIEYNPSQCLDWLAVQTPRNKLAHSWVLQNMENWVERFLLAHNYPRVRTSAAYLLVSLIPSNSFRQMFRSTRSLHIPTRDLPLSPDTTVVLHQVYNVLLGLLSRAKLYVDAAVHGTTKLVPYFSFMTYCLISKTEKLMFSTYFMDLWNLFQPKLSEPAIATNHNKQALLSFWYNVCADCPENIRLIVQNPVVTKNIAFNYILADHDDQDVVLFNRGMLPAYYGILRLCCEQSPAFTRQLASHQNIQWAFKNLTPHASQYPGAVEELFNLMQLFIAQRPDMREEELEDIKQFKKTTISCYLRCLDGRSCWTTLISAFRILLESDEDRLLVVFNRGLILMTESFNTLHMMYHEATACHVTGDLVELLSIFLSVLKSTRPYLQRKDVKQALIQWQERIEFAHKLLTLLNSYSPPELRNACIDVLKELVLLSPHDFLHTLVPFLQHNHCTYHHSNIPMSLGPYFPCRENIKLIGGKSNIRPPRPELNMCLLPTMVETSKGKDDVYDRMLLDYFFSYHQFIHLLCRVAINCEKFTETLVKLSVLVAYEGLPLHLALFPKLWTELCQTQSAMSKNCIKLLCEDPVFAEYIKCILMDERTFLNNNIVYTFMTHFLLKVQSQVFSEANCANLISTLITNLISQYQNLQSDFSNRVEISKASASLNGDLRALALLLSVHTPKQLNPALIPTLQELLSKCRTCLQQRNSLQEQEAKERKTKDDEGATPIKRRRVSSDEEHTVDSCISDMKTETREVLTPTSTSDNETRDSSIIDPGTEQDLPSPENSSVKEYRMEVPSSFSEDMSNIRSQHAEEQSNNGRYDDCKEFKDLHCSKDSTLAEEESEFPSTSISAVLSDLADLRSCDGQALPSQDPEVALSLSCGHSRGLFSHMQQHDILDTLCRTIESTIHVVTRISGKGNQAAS
procedure_summary: log2 ratio of Biotin-Ahx-Ub-VS probe labelling (fragment/DMSO); higher = less target engagement (more negative = stronger competition), active = hit call of the paper (q ≤ 0.05, log2 ratio ≤ -1)
assay_conditions: compound concentration: 200 uM; treatment time: 3 h
Binning scheme for log2 ratio of Biotin-Ahx-Ub-VS probe labelling: low bin (below -0.2), mid bin (-0.2 to below -0.1), high bin (-0.1 or more)

Class for CCC(NC(=O)CCl)c1ccc(Cl)cc1 (stereo unspecified) ?
mid bin

Category of "COCC[C@@H](NC(=O)CCl)c1ccccc1" , please.
high bin

Textbook exercise: identify the category of the compound given here, "C#Cc1cccc(NC(=O)CCl)c1" , according to its measured value.
mid bin

The entry to classify is "Cc1nc(CC2CCN(C(=O)CCl)CC2)no1" ; which class holds it?
low bin

Class (by measured log2 ratio of Biotin-Ahx-Ub-VS probe labelling) for "CN1C(=O)c2ccc(NC(=O)CCl)cc2C1=O"
low bin

Band of "C[C@@H](NC(=O)CCl)c1cccc(C#N)c1" ?
low bin

Lab note: sort Cc1ccc(N2CCC(NC(=O)CCl)C2=O)cc1 (stereo unspecified) into the matching log2 ratio of Biotin-Ahx-Ub-VS probe labelling band.
high bin

Which category does the recorded log2 ratio of Biotin-Ahx-Ub-VS probe labelling put "Cl.O=C(CCl)N1CCN(Cc2ccccc2)CC1" in?
mid bin

Form: Item = "O=C(CCl)N1CCC(OCc2ccccc2F)CC1" ; Class = ?
mid bin

Dear colleague, I would appreciate it if you could identify the bin for CC(NC(=O)CCl)c1ccc2[nH]ncc2c1 (stereo unspecified) and reply at your convenience.
low bin

Continuing:
Category of "O=C(CCl)Nc1ccc(N2CCCC2=O)cc1" , please.
high bin
